molecular target: Indoleamine 2,3-dioxygenase 1 (Homo sapiens, UniProt P14902, C129A); experiment: Inhibition of recombinant human IDO1 C129A mutant expressed in Escherichia coli SG13009(pREP4) using L-Tryptophan as substrate after 25 mins by fluorescence assay
Sequence (P14902 whole entry C129A): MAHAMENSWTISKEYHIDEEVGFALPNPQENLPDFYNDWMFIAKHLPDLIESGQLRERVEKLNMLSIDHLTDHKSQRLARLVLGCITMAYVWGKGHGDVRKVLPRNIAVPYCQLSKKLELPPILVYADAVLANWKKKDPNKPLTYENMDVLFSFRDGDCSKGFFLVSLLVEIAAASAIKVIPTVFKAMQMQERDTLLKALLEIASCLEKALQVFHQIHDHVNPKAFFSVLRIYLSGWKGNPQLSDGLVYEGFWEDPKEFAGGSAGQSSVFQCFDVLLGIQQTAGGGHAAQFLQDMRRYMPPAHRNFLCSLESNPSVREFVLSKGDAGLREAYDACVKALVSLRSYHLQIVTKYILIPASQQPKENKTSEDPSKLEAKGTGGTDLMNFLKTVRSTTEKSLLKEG
observed_property: IC50 (µM)

structure_string=NNC(=O)CNc1cccc(Br)c1 unit_abbreviation=µM test_result=44.9
structure_string=c1ccc(NCCSc2nc3ccccc3s2)cc1 unit_abbreviation=µM test_result=8.2
structure_string=c1ccc2c(c1)Nc1ccncc1S2 unit_abbreviation=µM test_result=31.6

----------
tested on: Indoleamine 2,3-dioxygenase 1 (Homo sapiens), P14902 [S167A]; assay: Inhibition of recombinant human IDO1 S167A mutant expressed in Escherichia coli SG13009(pREP4) at 20 uM using L-Tryptophan as substrate after 25 mins by fluorescence assay relative to control
Sequence (P14902 whole entry S167A): as the sequence (P14902 whole entry C129A) above, with A129C, S167A counted along it
Reported inhibition values follow for various molecules
observed_property: inhibition (%)

molecule=Cc1ccc2c(c1)c1ccc3c(c1n2C)C(=O)C=CC3=O test_result=-4
molecule="COC12C(COC(N)=O)C3=C(C(=O)C(C)=C(N)C3=O)N1CC1C2N1C (stereo not given)" test_result=-4
molecule=COc1cc2c(cc1OC)[N+]([O-])=C(c1ccccc1)C2=O test_result=0
molecule=C=Cc1cc(OC)c2c(c1)c(=O)oc1c2cc(OC)c2c(O)ccc([C@@H]3O[C@H](C)[C@H](O)[C@@](C)(O)[C@H]3O)c21 test_result=8
molecule=Oc1ccccc1-c1nc2c3ccccc3c3ccccc3c2[nH]1 test_result=2
molecule=O=c1c(O)cccc2cc(O)c(O)c(O)c12 test_result=-4
molecule=CC[C@@H](CNc1cc(OC)cc2cccnc12)NC1CCCCC1 test_result=-6
molecule=O=[N+]([O-])c1ccc(Sc2cccc[n+]2[O-])c2nonc12 test_result=-1
molecule=CC(=O)OCCn1c2nc(=O)[nH]c(=O)c-2nc2cc(C)c(C)cc21 test_result=-8
molecule=CC1=CC(C)(C)NC(=S)N1c1cccc2cc(S(N)(=O)=O)ccc12 test_result=-8

----------
Reported log10 IC50 values follow for various molecules
molecular target: Indoleamine 2,3-dioxygenase 1 (Homo sapiens); assay: Inhibition of recombinant human IDO1 expressed in bacterial expression system using L-Tryptophan as substrate after 25 mins in absence of GSH and presence of tween20 by fluorescence assay
observed_property: log10 IC50 (log10 of the value in µM)

molecule=Oc1nccc(SCc2ccc(Cl)cc2Cl)n1 experimental_target="Indoleamine 2,3-dioxygenase 1 (Homo sapiens)" test_result=0.88
molecule=Oc1ccc(-c2nc3c4ccccc4c4ccccc4c3[nH]2)cc1 experimental_target="Indoleamine 2,3-dioxygenase 1 (Homo sapiens)" test_result=2.72
molecule=CC[C@@H](CNc1cc(OC)cc2cccnc12)NC1CCCCC1 experimental_target="Indoleamine 2,3-dioxygenase 1 (Homo sapiens)" test_result=1.73
molecule=Cc1ccccc1C1=[N+]([O-])c2ccccc2C1=O experimental_target="Indoleamine 2,3-dioxygenase 1 (Homo sapiens)" test_result=-0.34
molecule=O=[N+]([O-])c1ccc(Sc2ccc(F)cc2)c2nonc12 experimental_target="Indoleamine 2,3-dioxygenase 1 (Homo sapiens)" test_result=0.94
molecule=CCn1c2ccccc2nc2cc3c(cc21)c(Cl)c(=O)c1ccccc13 experimental_target="Indoleamine 2,3-dioxygenase 1 (Homo sapiens)" test_result=1.63
molecule=O=[N+]([O-])c1ccc(Nc2ccc(Br)cc2)c2nonc12 experimental_target="Indoleamine 2,3-dioxygenase 1 (Homo sapiens)" test_result=1.83
molecule="O/N=C1\\c2ccccc2NC1c1ccccc1 (stereo unspecified)" experimental_target="Indoleamine 2,3-dioxygenase 1 (Homo sapiens)" test_result=2.71
molecule=Fc1ccccc1-c1nc2c3ccccc3c3ccccc3c2[nH]1 experimental_target="Indoleamine 2,3-dioxygenase 1 (Homo sapiens)" test_result=2.36
molecule=NNC(=O)CNc1cccc(Br)c1 experimental_target="Indoleamine 2,3-dioxygenase 1 (Homo sapiens)" test_result=3.00
molecule=COc1c(NC(C)=O)c2ccccc2c2ccccc12 experimental_target="Indoleamine 2,3-dioxygenase 1 (Homo sapiens)" test_result=1.55
molecule=O=[N+]([O-])c1cccc2nsnc12 experimental_target="Indoleamine 2,3-dioxygenase 1 (Homo sapiens)" test_result=2.51
molecule=COc1ccc2c(c1)c1ccc3c(c1n2C)C(=O)C=CC3=O experimental_target="Indoleamine 2,3-dioxygenase 1 (Homo sapiens)" test_result=1.41
molecule=Oc1cccc(-c2nc3c4ccccc4c4ccccc4c3[nH]2)c1 experimental_target="Indoleamine 2,3-dioxygenase 1 (Homo sapiens)" test_result=2.05
molecule=Cc1cccc2c1c1ccc3c(c1n2C)C(=O)C=CC3=O experimental_target="Indoleamine 2,3-dioxygenase 1 (Homo sapiens)" test_result=1.55
molecule=Sc1ccc(Cl)cc1 experimental_target="Indoleamine 2,3-dioxygenase 1 (Homo sapiens)" test_result=0.90
molecule=CC1=CC(C)(C)NC(=S)N1c1cccc2cc(S(N)(=O)=O)ccc12 experimental_target="Indoleamine 2,3-dioxygenase 1 (Homo sapiens)" test_result=1.44
molecule=c1ccc2c(c1)Nc1ccncc1S2 experimental_target="Indoleamine 2,3-dioxygenase 1 (Homo sapiens)" test_result=2.63
molecule=O=C1C(c2ccccc2)=[N+]([O-])c2ccccc21 experimental_target="Indoleamine 2,3-dioxygenase 1 (Homo sapiens)" test_result=-0.06
molecule="Cc1ccc([S+]([O-])c2ccc([N+](=O)[O-])c3nonc23)cc1 (stereo unspecified)" experimental_target="Indoleamine 2,3-dioxygenase 1 (Homo sapiens)" test_result=1.08
molecule=O=c1c(O)cccc2cc(O)c(O)c(O)c12 experimental_target="Indoleamine 2,3-dioxygenase 1 (Homo sapiens)" test_result=1.78
molecule=Clc1ccc(SCNc2ccccc2Cl)cc1 experimental_target="Indoleamine 2,3-dioxygenase 1 (Homo sapiens)" test_result=0.65
molecule=O=[N+]([O-])c1ccc(NCSc2ccc(Cl)cc2)cc1 experimental_target="Indoleamine 2,3-dioxygenase 1 (Homo sapiens)" test_result=-0.10
molecule=COc1ccc(C2=[N+]([O-])c3ccccc3C2=O)cc1 experimental_target="Indoleamine 2,3-dioxygenase 1 (Homo sapiens)" test_result=0.20
molecule=c1ccc(NCCSc2nc3ccccc3s2)cc1 experimental_target="Indoleamine 2,3-dioxygenase 1 (Homo sapiens)" test_result=2.06
molecule=COc1ccc(Nc2ccc([N+](=O)[O-])c3nonc23)cc1 experimental_target="Indoleamine 2,3-dioxygenase 1 (Homo sapiens)" test_result=1.98
molecule=C=Cc1cc(OC)c2c(c1)c(=O)oc1c2cc(OC)c2c(O)ccc([C@@H]3O[C@H](C)[C@H](O)[C@@](C)(O)[C@H]3O)c21 experimental_target="Indoleamine 2,3-dioxygenase 1 (Homo sapiens)" test_result=1.35
molecule=Cc1ccccc1-c1nc2c3ccccc3c3ccccc3c2[nH]1 experimental_target="Indoleamine 2,3-dioxygenase 1 (Homo sapiens)" test_result=2.71
molecule=O=C(O)c1cc(F)c2nonc2c1Nc1ccc(I)cc1F experimental_target="Indoleamine 2,3-dioxygenase 1 (Homo sapiens)" test_result=1.63
molecule=CC(=O)OC1=C(c2ccccc2)C(=O)c2ccccc21 experimental_target="Indoleamine 2,3-dioxygenase 1 (Homo sapiens)" test_result=2.42
molecule=Cc1cc(I)ccc1Nc1cc2no[n+]([O-])c2cc1C(=O)O experimental_target="Indoleamine 2,3-dioxygenase 1 (Homo sapiens)" test_result=1.36
molecule=Cc1cc(I)ccc1Nc1cc2nonc2cc1C(=O)O experimental_target="Indoleamine 2,3-dioxygenase 1 (Homo sapiens)" test_result=1.61
molecule=Cn1c2ccccc2c2ccc3c(c21)C(=O)C=CC3=O experimental_target="Indoleamine 2,3-dioxygenase 1 (Homo sapiens)" test_result=1.63
molecule="COc1c(O)ccc2c1CN1CCc3cc4c(cc3C1C2)OCO4 (stereo unspecified)" experimental_target="Indoleamine 2,3-dioxygenase 1 (Homo sapiens)" test_result=1.55
molecule="COC12C(COC(N)=O)C3=C(C(=O)C(C)=C(N)C3=O)N1CC1C2N1C (stereo unspecified)" experimental_target="Indoleamine 2,3-dioxygenase 1 (Homo sapiens)" test_result=1.20
molecule=Cc1ccc2c(c1)c1ccc3c(c1n2C)C(=O)C=CC3=O experimental_target="Indoleamine 2,3-dioxygenase 1 (Homo sapiens)" test_result=1.67
molecule=O=[N+]([O-])c1ccccc1NCSc1ccc(Cl)cc1 experimental_target="Indoleamine 2,3-dioxygenase 1 (Homo sapiens)" test_result=1.80
molecule=CC(=O)OCCn1c2nc(=O)[nH]c(=O)c-2nc2cc(C)c(C)cc21 experimental_target="Indoleamine 2,3-dioxygenase 1 (Homo sapiens)" test_result=1.50

----------
assay: Cytotoxicity against mouse LLTC cells assessed as reduction in cell viability after 24 hrs by MTT assay; assay type: cell-based; conditions: read-out: LC50
Reported CC50 at 24 h values follow for various compounds
observed_property: CC50 at 24 h (µM)

structure_string=Oc1nccc(SCc2ccc(Cl)cc2Cl)n1 inequality_symbol=> test_result=117
structure_string=c1ccc(-c2c[nH]cn2)cc1 inequality_symbol=> test_result=1150
structure_string=O=C(O)c1cc(F)c2nonc2c1Nc1ccc(I)cc1F inequality_symbol=> test_result=233
structure_string=O=[N+]([O-])c1ccccc1NCSc1ccc(Cl)cc1 inequality_symbol== test_result=52
structure_string=O=C1C(c2ccccc2)=[N+]([O-])c2ccccc21 inequality_symbol== test_result=14

----------
target: Indoleamine 2,3-dioxygenase 1 (Homo sapiens, UniProt P14902, S167A)
Sequence (P14902 whole entry S167A): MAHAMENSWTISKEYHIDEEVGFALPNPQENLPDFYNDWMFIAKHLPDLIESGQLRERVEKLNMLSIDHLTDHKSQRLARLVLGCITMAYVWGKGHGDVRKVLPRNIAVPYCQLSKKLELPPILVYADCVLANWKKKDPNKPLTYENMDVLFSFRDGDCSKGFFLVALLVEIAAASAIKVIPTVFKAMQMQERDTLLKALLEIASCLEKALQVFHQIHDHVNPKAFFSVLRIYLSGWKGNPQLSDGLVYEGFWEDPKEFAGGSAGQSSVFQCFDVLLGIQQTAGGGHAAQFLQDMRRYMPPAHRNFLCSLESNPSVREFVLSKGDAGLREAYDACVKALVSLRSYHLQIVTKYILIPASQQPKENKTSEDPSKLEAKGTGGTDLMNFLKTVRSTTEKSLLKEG
pIC50: −log10 of the molar value.
# pIC50 >= 4 gives 1.0, anything below gives 0.0

compound=O=[N+]([O-])c1ccc(Sc2ccc(F)cc2)c2nonc12 experimental_target="Indoleamine 2,3-dioxygenase 1 (Homo sapiens, UniProt P14902, S167A)" qualitative_label=1.0
compound=COc1ccc(C2=[N+]([O-])c3ccccc3C2=O)cc1 experimental_target="Indoleamine 2,3-dioxygenase 1 (Homo sapiens, UniProt P14902, S167A)" qualitative_label=1.0
compound="O/N=C1\\c2ccccc2NC1c1ccccc1 (configuration not stated)" experimental_target="Indoleamine 2,3-dioxygenase 1 (Homo sapiens, UniProt P14902, S167A)" qualitative_label=0.0
compound="COC12C(COC(N)=O)C3=C(C(=O)C(C)=C(N)C3=O)N1CC1C2N1C (configuration not stated)" experimental_target="Indoleamine 2,3-dioxygenase 1 (Homo sapiens, UniProt P14902, S167A)" qualitative_label=0.0
compound=Sc1ccc(Cl)cc1 experimental_target="Indoleamine 2,3-dioxygenase 1 (Homo sapiens, UniProt P14902, S167A)" qualitative_label=1.0
compound=CC[C@@H](CNc1cc(OC)cc2cccnc12)NC1CCCCC1 experimental_target="Indoleamine 2,3-dioxygenase 1 (Homo sapiens, UniProt P14902, S167A)" qualitative_label=0.0
compound=C=Cc1cc(OC)c2c(c1)c(=O)oc1c2cc(OC)c2c(O)ccc([C@@H]3O[C@H](C)[C@H](O)[C@@](C)(O)[C@H]3O)c21 experimental_target="Indoleamine 2,3-dioxygenase 1 (Homo sapiens, UniProt P14902, S167A)" qualitative_label=0.0
compound="O=c1c(O)cccc2cc(O)c(O)c(O)c12 [PURPUROGALLIN]" experimental_target="Indoleamine 2,3-dioxygenase 1 (Homo sapiens, UniProt P14902, S167A)" qualitative_label=0.0
compound=Cn1c2ccccc2c2ccc3c(c21)C(=O)C=CC3=O experimental_target="Indoleamine 2,3-dioxygenase 1 (Homo sapiens, UniProt P14902, S167A)" qualitative_label=0.0
compound=O=C(O)c1cc(F)c2nonc2c1Nc1ccc(I)cc1F experimental_target="Indoleamine 2,3-dioxygenase 1 (Homo sapiens, UniProt P14902, S167A)" qualitative_label=1.0
compound=Cc1cccc2c1c1ccc3c(c1n2C)C(=O)C=CC3=O experimental_target="Indoleamine 2,3-dioxygenase 1 (Homo sapiens, UniProt P14902, S167A)" qualitative_label=0.0
compound=COc1ccc2c(c1)c1ccc3c(c1n2C)C(=O)C=CC3=O experimental_target="Indoleamine 2,3-dioxygenase 1 (Homo sapiens, UniProt P14902, S167A)" qualitative_label=0.0
compound=O=C1C(c2ccccc2)=[N+]([O-])c2ccccc21 experimental_target="Indoleamine 2,3-dioxygenase 1 (Homo sapiens, UniProt P14902, S167A)" qualitative_label=1.0
compound=Oc1cccc(-c2nc3c4ccccc4c4ccccc4c3[nH]2)c1 experimental_target="Indoleamine 2,3-dioxygenase 1 (Homo sapiens, UniProt P14902, S167A)" qualitative_label=0.0
compound=O=[N+]([O-])c1ccc(NCSc2ccc(Cl)cc2)cc1 experimental_target="Indoleamine 2,3-dioxygenase 1 (Homo sapiens, UniProt P14902, S167A)" qualitative_label=1.0
compound="COc1c(O)ccc2c1CN1CCc3cc4c(cc3C1C2)OCO4 (configuration not stated)" experimental_target="Indoleamine 2,3-dioxygenase 1 (Homo sapiens, UniProt P14902, S167A)" qualitative_label=0.0
compound=Oc1nccc(SCc2ccc(Cl)cc2Cl)n1 experimental_target="Indoleamine 2,3-dioxygenase 1 (Homo sapiens, UniProt P14902, S167A)" qualitative_label=1.0
compound=Cc1ccccc1C1=[N+]([O-])c2ccccc2C1=O experimental_target="Indoleamine 2,3-dioxygenase 1 (Homo sapiens, UniProt P14902, S167A)" qualitative_label=1.0
compound="Cc1ccc([S+]([O-])c2ccc([N+](=O)[O-])c3nonc23)cc1 (configuration not stated)" experimental_target="Indoleamine 2,3-dioxygenase 1 (Homo sapiens, UniProt P14902, S167A)" qualitative_label=1.0
compound=O=[N+]([O-])c1cccc2nsnc12 experimental_target="Indoleamine 2,3-dioxygenase 1 (Homo sapiens, UniProt P14902, S167A)" qualitative_label=0.0
compound=Cc1ccc2c(c1)c1ccc3c(c1n2C)C(=O)C=CC3=O experimental_target="Indoleamine 2,3-dioxygenase 1 (Homo sapiens, UniProt P14902, S167A)" qualitative_label=0.0
compound=COc1c(NC(C)=O)c2ccccc2c2ccccc12 experimental_target="Indoleamine 2,3-dioxygenase 1 (Homo sapiens, UniProt P14902, S167A)" qualitative_label=0.0
compound=Cc1ccccc1-c1nc2c3ccccc3c3ccccc3c2[nH]1 experimental_target="Indoleamine 2,3-dioxygenase 1 (Homo sapiens, UniProt P14902, S167A)" qualitative_label=0.0
compound=CC1=CC(C)(C)NC(=S)N1c1cccc2cc(S(N)(=O)=O)ccc12 experimental_target="Indoleamine 2,3-dioxygenase 1 (Homo sapiens, UniProt P14902, S167A)" qualitative_label=0.0
compound=CCn1c2ccccc2nc2cc3c(cc21)c(Cl)c(=O)c1ccccc13 experimental_target="Indoleamine 2,3-dioxygenase 1 (Homo sapiens, UniProt P14902, S167A)" qualitative_label=0.0
compound=Cc1cc(I)ccc1Nc1cc2nonc2cc1C(=O)O experimental_target="Indoleamine 2,3-dioxygenase 1 (Homo sapiens, UniProt P14902, S167A)" qualitative_label=1.0
compound=CC(=O)OCCn1c2nc(=O)[nH]c(=O)c-2nc2cc(C)c(C)cc21 experimental_target="Indoleamine 2,3-dioxygenase 1 (Homo sapiens, UniProt P14902, S167A)" qualitative_label=0.0
compound=Clc1ccc(SCNc2ccccc2Cl)cc1 experimental_target="Indoleamine 2,3-dioxygenase 1 (Homo sapiens, UniProt P14902, S167A)" qualitative_label=1.0
